subject.of.test: T1, recombinant soluble human IL-6 receptor (SR344) (human, UniProt P08887 20-344, biotinylated (sites not given) where immobilized via streptavidin or used in phage ELISA)
T1 construct: also called soluble IL-6 receptor; membrane-type IL-6 receptor (when biotinylated and immobilized on the chip)
T1 sequence (looked up): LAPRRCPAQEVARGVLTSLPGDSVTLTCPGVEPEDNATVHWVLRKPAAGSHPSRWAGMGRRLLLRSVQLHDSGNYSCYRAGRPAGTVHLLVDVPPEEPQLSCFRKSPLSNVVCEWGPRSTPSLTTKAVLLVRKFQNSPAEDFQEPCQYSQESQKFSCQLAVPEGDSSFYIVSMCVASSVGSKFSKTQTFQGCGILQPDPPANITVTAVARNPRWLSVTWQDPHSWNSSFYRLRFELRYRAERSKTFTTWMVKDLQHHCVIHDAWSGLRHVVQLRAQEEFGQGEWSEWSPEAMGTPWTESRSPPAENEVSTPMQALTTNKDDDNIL
method.description: SPR Biacore T100, biotinylated SR344 on streptavidin chip (model of membrane IL-6 receptor), antibody 0.5 ug/mL as analyte, 37 C
In this section, each of the binders is paired with its reported kd ratio pH 5.8/pH 7.4.
// return just the number, without any unit appended

Example entries and their recorded answers appear below.
Reported kd ratio pH 5.8/pH 7.4 for H170/L82 (antibody, IgG1, V domains shown, expressed and purified as IgG (IgG1); also called H170/L82-IgG1) VH: QVQLQESGPGLVKPSETLSLTCAVSGHSISHHHAHSWVRQPPGEGLEWIGYISYSGITHYNPHLKGRVTISRDTSKNQFSLKLSSVTAADTAAYYCARVLARITAMDHWGEGTLVTVSS VL: DIQMTQSPSSLSASVGDSVTITCQASQDISSHLNWYQQKPGKAPELLIYYGSHLHSGVPSRFSGSGSGTDFTFTISSLEAEDAATYYCGQGNRLPYTFGQGTKVEIE : what is it?
1.9

Then this binder: humanized PM1 antibody (wild type, WT) (antibody, human IgG1, kappa, V domains shown, IgG1; also called WT-IgG1; wild type humanized anti-IL-6 receptor antibody) VH: QVQLQESGPGLVRPSQTLSLTCTVSGYSITSDHAWSWVRQPPGRGLEWIGYISYSGITTYNPSLKSRVTMLRDTSKNQFSLRLSSVTAADTAVYYCARSLARTTAMDYWGQGSLVTVSS VL: DIQMTQSPSSLSASVGDRVTITCRASQDISSYLNWYQQKPGKAPKLLIYYTSRLHSGVPSRFSGSGSGTDFTFTISSLQPEDIATYYCQQGNTLPYTFGQGTKVEIKR
1.5

Let's switch to this binder now.
Reported kd ratio pH 5.8/pH 7.4 for H3pI/L73 (antibody, IgG1, V domains shown, tested as IgG1; also called H3pI/L73-IgG1; H3pl/L73) VH: QVQLQESGPGLVKPSETLSLTCAVSGHSISHDHAHSWVRQPPGEGLEWIGYISYSGITNYNPSLKGRVTISRDTSKNQFSLKLSSVTAADTAAYYCARSLARTTAMDYWGEGTLVTVSS VL: DIQMTQSPSSLSASVGDSVTITCQASQHISSHLNWYQQKPGKAPELLIYYGSHLHSGVPSRFSGSGSGTDFTFTISSLEAEDAATYYCGQGNRLPYTFGQGTKVEIE : what is it?
11
